system: hDMFa myofibroblast cells
parameter: Compound Myofibroblast Cytotoxicity Activity

# compound, tested_target, result
rows = [
    ("CC[C@H](NC(=O)[C@H](C)NC)C(=O)N1C[C@@H](O)C[C@H]1Cc1c(-c2[nH]c3cc(F)ccc3c2C[C@@H]2C[C@H](O)CN2C(=O)[C@H](CC)NC(=O)[C@H](C)NC)[nH]c2cc(F)ccc12", "hDMFa myofibroblast cells", "++"),
    ("CCOc1cc(CC(=O)N[C@@H](CC(C)C)c2ccccc2N2CCCCC2)ccc1C(=O)O [Cmpd 826, Repaglinide]", "hDMFa myofibroblast cells", "+++"),
    ("Cl.c1ccc2c(-c3cnn4cc(-c5ccc(N6CCNCC6)cc5)cnc34)ccnc2c1 [Cmpd 574, LDN193189 Hydrochloride]", "hDMFa myofibroblast cells", "+++++"),
    ("O=c1ccc2ccc(OCCCCN3CCN(c4cccc5sccc45)CC3)cc2[nH]1", "hDMFa myofibroblast cells", "+++"),
    ("CCN1CCN(Cc2ccc(Nc3ncc(F)c(-c4cc(F)c5nc(C)n(C(C)C)c5c4)n3)nc2)CC1 [Cmpd 622, LY2835219 free base]", "hDMFa myofibroblast cells", "++++"),
    ("Nc1nc2ncc(CNc3ccc(C(=O)N[C@@H](CCC(=O)O)C(=O)O)cc3)nc2c(=O)[nH]1", "hDMFa myofibroblast cells", "++"),
]

* * *

tested on: hDMFa myofibroblast cells
Structures can show the parent of a compound that is named as a salt.
parameter: Compound Myofibroblast Cytotoxicity Activity

# compound, tested_target, result
records = [
    ("Clc1ccc(COC(Cn2ccnc2)c2ccc(Cl)cc2Cl)c(Cl)c1 (centres unmarked) [Cmpd 671, Miconazole]", "hDMFa myofibroblast cells", "+++"),
    ("N=C(NCCCCCCNC(=N)NC(=N)Nc1ccc(Cl)cc1)NC(=N)Nc1ccc(Cl)cc1.O=C(O)[C@H](O)[C@@H](O)[C@H](O)[C@H](O)CO.O=C(O)[C@H](O)[C@@H](O)[C@H](O)[C@H](O)CO [Cmpd 248, Chlorhexidine digluconate]", "hDMFa myofibroblast cells", "+++"),
    ("CSCCC(N)C(=O)O (racemic) [Cmpd 369, DL-Methionine]", "hDMFa myofibroblast cells", "++"),
    ("O=C([O-])CN(CCN(CC(=O)[O-])CC(=O)[O-])CC(=O)[O-].[Ca+2].[Na+].[Na+] [Cmpd 404, edetate calcium disodium]", "hDMFa myofibroblast cells", "++"),
    ("CCn1cc(C(=O)O)c(=O)c2cc(F)c(N3CCNCC3)nc21 [Cmpd 416, Enoxacin Sesquihydrate]", "hDMFa myofibroblast cells", "++"),
    ("CC(=O)Nc1ccc(C(=O)O)cc1.CC(=O)Nc1ccc(C(=O)O)cc1.CC(=O)Nc1ccc(C(=O)O)cc1.CC(O)CN(C)C.CC(O)CN(C)C.CC(O)CN(C)C.O=c1[nH]cnc2c1ncn2[C@@H]1O[C@H](CO)[C@@H](O)[C@H]1O [Cmpd 538, Isoprinosine]", "hDMFa myofibroblast cells", "++"),
    ("O=C(O)/C=C/c1ccc(O)c(O)c1 [Cmpd 200, Caffeic acid]", "hDMFa myofibroblast cells", "+"),
    ("C=C1CC[C@H]2C(=C)CC[C@H]3C(=C)C(=O)O[C@@H]3[C@@H]12 [Cmpd 336, Dehydrocostus Lactone]", "hDMFa myofibroblast cells", "+++++"),
    ("c1ccc(-c2ccc(C(c3ccccc3)n3ccnc3)cc2)cc1 (centres unmarked) [Cmpd 182, Bifonazole]", "hDMFa myofibroblast cells", "+++"),
    ("CN(C)CCCN1c2ccccc2Sc2ccc(Cl)cc21 [Cmpd 253, Chlorpromazine HCl]", "hDMFa myofibroblast cells", "+++"),
    ("Cl.N[C@@H]1C[C@H]1c1ccccc1 [Cmpd 964, Tranylcypromine hydrochloride]", "hDMFa myofibroblast cells", "++++"),
    ("CCc1oc2ccccc2c1C(=O)c1cc(Br)c(O)c(Br)c1 [Cmpd 164, Benzbromarone]", "hDMFa myofibroblast cells", "++++"),
    ("CC(C)N1CCN(c2ccc(OCC3COC(Cn4cncn4)(c4ccc(Cl)cc4Cl)O3)cc2)CC1 (centres unmarked) [Cmpd 928, Terconazole]", "hDMFa myofibroblast cells", "++"),
    ("CN(C/C=C/C#CC(C)(C)C)Cc1cccc2ccccc12 [Cmpd 927, Terbinafine HCl]", "hDMFa myofibroblast cells", "++++"),
]

* * *

test system: hDMFa myofibroblast cells
Structures can show the parent of a compound that is named as a salt.
parameter: Compound Myofibroblast Cytotoxicity Activity

# molecule, tested_target, result
rows = [
    ("CN(C/C=C/c1ccccc1)Cc1cccc2ccccc12 [Cmpd 696, Naftifine HCl]", "hDMFa myofibroblast cells", "++"),
    ("Cc1ccnc(NS(=O)(=O)c2ccc(N)cc2)n1", "hDMFa myofibroblast cells", "+++"),
    ("N.S=C(S)N1CCCC1 [Cmpd 811, Pyrrolidinedithiocarbamate ammonium]", "hDMFa myofibroblast cells", "++"),
    ("CC(=O)O.CC(=O)O.NC(=N\\CCCCCC/N=C(N)/N=C(\\N)Nc1ccc(Cl)cc1)/N=C(\\N)Nc1ccc(Cl)cc1 [Cmpd 247, Chlorhexidine diacetate]", "hDMFa myofibroblast cells", "+++++"),
    ("Cc1cc(C(C#N)c2ccc(Cl)cc2)c(Cl)cc1NC(=O)c1cc(I)cc(I)c1[O-].[Na+] (stereo not shown) [Cmpd 288, Closantel Sodium]", "hDMFa myofibroblast cells", "+++"),
    ("c1cc(-c2cnn3cc(-c4ccc(N5CCNCC5)cc4)cnc23)c2cccnc2c1", "hDMFa myofibroblast cells", "++++"),
    ("CN1CCN(c2nc(C3=C(c4c[nH]c5ccccc45)C(=O)NC3=O)c3ccccc3n2)CC1", "hDMFa myofibroblast cells", "++"),
]

* * *

Counter-ions that a name gives are not always drawn.
Record type: Compound Myofibroblast Cytotoxicity Activity measurement. Applies to: hDMFa myofibroblast cells
parameter: Compound Myofibroblast Cytotoxicity Activity

# molecule, result
records = [
    ("CC[C@H](C)C(=O)O[C@H]1CCC=C2C=C[C@H](C)[C@H](CC[C@@H]3C[C@@H](O)CC(=O)O3)[C@H]21 [Cmpd 668, Mevastatin]", "+++"),
    ("Clc1ccc(C(Cn2ccnc2)OCc2c(Cl)cccc2Cl)c(Cl)c1 (centres unmarked) [Cmpd 535, Isoconazole nitrate]", "+++"),
    ("Cl.NCCCC(N)(C(=O)O)C(F)F (racemic) [Cmpd 371]", "++"),
    ("C[C@@H]1C[C@H]2[C@@H]3CCC4=CC(=O)C=C[C@]4(C)[C@@]3(Cl)[C@@H](O)C[C@]2(C)[C@@]1(OC(=O)c1ccco1)C(=O)CCl [Cmpd 688, Mometasone furoate]", "++"),
    ("Cc1ccc(S(=O)(=O)NC(=O)NN2CCCCCC2)cc1 [Cmpd 953, Tolazamide]", "++++"),
    ("C=C1/C(=C\\C=C2/CCC[C@]3(C)[C@@H]([C@H](C)/C=C/[C@H](C)C(C)C)CC[C@@H]23)C[C@@H](O)C[C@@H]1O [Cmpd 386, Doxercalciferol]", "+++"),
    ("Cl.N[C@H](C=O)[C@@H](O)[C@H](O)[C@H](O)CO [Cmpd 23]", "++"),
    ("Cc1c(-c2ccc(O)cc2)n(Cc2ccc(OCCN3CCCCCC3)cc2)c2ccc(O)cc12 [Cmpd 159, Bazedoxifene acetate]", "++++"),
    ("Nc1n[n+]([O-])c2ccccc2[n+]1[O-] [Cmpd 948, Tirapazamine]", "++++"),
    ("C[C@@H](O)[C@H](N)C(=O)O [Cmpd 614, L-Threonine]", "+++++"),
    ("O=c1[nH]c(=O)n([C@H]2C[C@H](O)[C@@H](CO)O2)cc1F [Cmpd 459, Floxuridine]", "+++"),
    ("OC[C@@H](O)[C@@H](O)[C@H](O)[C@@H](O)CO [Cmpd 882, Sorbitol]", "++++"),
    ("Clc1ccc(Cn2c(CN3CCCC3)nc3ccccc32)cc1 [Cmpd 277, Clemizole hydrochloride]", "++"),
    ("O=C(O)Cc1ccc(-c2ccccc2)cc1 [Cmpd 60, 4-Biphenylacetic acid]", "++"),
    ("CCOC(=O)C=Cc1ccccc1 [Cmpd 437, Ethyl Cinnamate]", "++"),
    ("CC1(C)Cc2c(-c3ccccc3)c(-c3ccc(Cl)cc3)c(CC(=O)O)n2C1 [Cmpd 588, Licofelone]", "+++"),
    ("CCCCCCCCCCCCCCCCCC(=O)O [Cmpd 889, Stearic Acid]", "+++"),
]

* * *

Record type: Compound Myofibroblast Cytotoxicity Activity measurement. Applies to: hDMFa myofibroblast cells
parameter: Compound Myofibroblast Cytotoxicity Activity

# molecule, tested_target, result
data = [
    ("NC(=O)CC[C@@H](N)C(=O)O", "hDMFa myofibroblast cells", "++"),
    ("O=c1sn(-c2cccc3ccccc23)c(=O)n1Cc1ccccc1", "hDMFa myofibroblast cells", "++"),
    ("CCCCC/C=C\\C/C=C\\C/C=C\\CCCCC(=O)O", "hDMFa myofibroblast cells", "+++"),
    ("CC(COc1ccccc1)N(CCCl)Cc1ccccc1.Cl (centres unmarked) [Cmpd 776, Phenoxybenzamine HCl]", "hDMFa myofibroblast cells", "++"),
    ("CCCCCCCCCCCCN1CCCCCC1=O", "hDMFa myofibroblast cells", "+++++"),
]
